These measurements were taken from the supplement of paper PMC7877785.

assay: self-splicing fitness, log relative to wild type (ln ratio); higher = more splicing; Tetrahymena group I intron in knt gene, E. coli kanamycin selection, DiMSum; sequences stand for … in CUCUCU…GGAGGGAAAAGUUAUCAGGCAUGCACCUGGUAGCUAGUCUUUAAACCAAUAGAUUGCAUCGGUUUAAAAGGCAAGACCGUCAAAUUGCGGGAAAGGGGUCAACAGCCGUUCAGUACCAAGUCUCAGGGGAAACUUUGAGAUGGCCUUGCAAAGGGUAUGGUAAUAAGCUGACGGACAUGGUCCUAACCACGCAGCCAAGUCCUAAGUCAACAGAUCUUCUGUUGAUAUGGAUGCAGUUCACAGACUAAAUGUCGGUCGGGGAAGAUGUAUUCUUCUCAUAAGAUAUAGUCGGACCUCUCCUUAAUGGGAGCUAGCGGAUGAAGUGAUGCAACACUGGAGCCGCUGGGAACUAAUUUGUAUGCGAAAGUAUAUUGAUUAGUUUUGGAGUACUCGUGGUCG; conditions: 37 °C;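 also: selection with 25 µg/mL kanamycin versus none on LB agar overnight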
Quick rule for you: self-splicing fitness (ln) at -2 or higher means yes (1), lower means no (0).

Macromolecule sequence: AUCGAGCAAUAUUACGAUCU
Assigned category: yes (1)
//
Macromolecule sequence: UAAGAGCAAUAUUACGGACG
Assigned category: yes (1)
//
Macromolecule sequence: GGUCAGCAAUAUUACGGUAU
Assigned category: yes (1)
//
Macromolecule sequence: UCGAAGCAAUAUUACGUUUC
Assigned category: no (0)
//
Macromolecule sequence: GUUAAGCAAUAUUACGAAUU
Assigned category: yes (1)
//
Macromolecule sequence: CAUCAGCAAUAUUACGCCGA
Assigned category: yes (1)
//
Macromolecule sequence: CAGGAGCAAUAUUACGAUGU
Assigned category: no (0)
//
Macromolecule sequence: CCGAAGCAAUAUUACGAGAC
Assigned category: no (0)
//
Macromolecule sequence: ACAAAGCAAUAUUACGCUGU
Assigned category: no (0)
//
Macromolecule sequence: CAUGAGCAAUAUUACGUUAG
Assigned category: yes (1)

---

This listing pairs sequences with measured self-splicing fitness (ln).
assay: self-splicing fitness, log relative to wild type (ln ratio); higher = more splicing; Tetrahymena group I intron in knt gene, E. coli kanamycin selection, DiMSum; sequences stand for … in CUCUCU…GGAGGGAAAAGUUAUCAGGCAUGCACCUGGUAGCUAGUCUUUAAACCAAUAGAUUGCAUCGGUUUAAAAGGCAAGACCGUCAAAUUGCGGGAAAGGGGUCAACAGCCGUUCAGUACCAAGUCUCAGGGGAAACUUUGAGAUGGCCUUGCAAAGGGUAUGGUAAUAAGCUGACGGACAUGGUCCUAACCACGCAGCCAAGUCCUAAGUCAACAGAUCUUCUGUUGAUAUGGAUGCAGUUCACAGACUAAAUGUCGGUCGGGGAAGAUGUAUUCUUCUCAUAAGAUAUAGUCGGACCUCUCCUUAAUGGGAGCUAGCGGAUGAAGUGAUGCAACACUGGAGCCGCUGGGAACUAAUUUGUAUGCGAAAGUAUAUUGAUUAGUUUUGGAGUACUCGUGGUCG; conditions: 37 °C

Macromolecule sequence: UUGCAGCAAUAUUACGCUUG
self-splicing fitness (ln): -1.97

Macromolecule sequence: UACUAGCAAUAUUACGCGUU
self-splicing fitness (ln): -0.827

Macromolecule sequence: GACGAGCAAUAUUACGACUA
self-splicing fitness (ln): -0.17

Macromolecule sequence: ACGGAGCAAUAUUACGGACC
self-splicing fitness (ln): -0.877

Macromolecule sequence: CGCCAGCAAUAUUACGUUUC
self-splicing fitness (ln): -2.42

Macromolecule sequence: AGGUAGCAAUAUUACGUGAA
self-splicing fitness (ln): -1.34

Macromolecule sequence: CUACAGCAAUAUUACGGUUA
self-splicing fitness (ln): 0.11

Macromolecule sequence: UUAGAGCAAUAUUACGUACA
self-splicing fitness (ln): -1.51

Macromolecule sequence: GAUGAGCAAUAUUACGCCCU
self-splicing fitness (ln): -1.4

Macromolecule sequence: UCGGAGCAAUAUUACGUAAG
self-splicing fitness (ln): -1.39

Macromolecule sequence: UCUUAGCAAUAUUACGUGGC
self-splicing fitness (ln): -1.6

Macromolecule sequence: CCUGAGCAAUAUUACGAGAC
self-splicing fitness (ln): -0.69

Macromolecule sequence: GGCAAGCAAUAUUACGCUCA
self-splicing fitness (ln): 0.321

Macromolecule sequence: AACCAGCAAUAUUACGGGGC
self-splicing fitness (ln): -2.64

Macromolecule sequence: ACACAGCAAUAUUACGAGUA
self-splicing fitness (ln): -0.889

Macromolecule sequence: UUCUAGCAAUAUUACGUAGA
self-splicing fitness (ln): -2.19

Macromolecule sequence: ACUGAGCAAUAUUACGAUGG
self-splicing fitness (ln): -1.13

Macromolecule sequence: ACUCAGCAAUAUUACGAAGA
self-splicing fitness (ln): -0.958

Macromolecule sequence: GAUGAGCAAUAUUACGCAGC
self-splicing fitness (ln): -1.61

Macromolecule sequence: GUAAAGCAAUAUUACGCGGA
self-splicing fitness (ln): -1.3

Macromolecule sequence: GAUUAGCAAUAUUACGUCCG
self-splicing fitness (ln): -2.61

Macromolecule sequence: AAAUAGCAAUAUUACGUAGG
self-splicing fitness (ln): -1.96

Macromolecule sequence: UACAAGCAAUAUUACGCCGU
self-splicing fitness (ln): -1.62

Macromolecule sequence: AAUAAGCAAUAUUACGUAAA
self-splicing fitness (ln): -1.22

Macromolecule sequence: GACAAGCAAUAUUACGCUUU
self-splicing fitness (ln): -2.11

---

assay: self-splicing fitness, log relative to wild type (ln ratio); higher = more splicing; Tetrahymena group I intron in knt gene, E. coli kanamycin selection, DiMSum; sequences stand for … in CUCUCU…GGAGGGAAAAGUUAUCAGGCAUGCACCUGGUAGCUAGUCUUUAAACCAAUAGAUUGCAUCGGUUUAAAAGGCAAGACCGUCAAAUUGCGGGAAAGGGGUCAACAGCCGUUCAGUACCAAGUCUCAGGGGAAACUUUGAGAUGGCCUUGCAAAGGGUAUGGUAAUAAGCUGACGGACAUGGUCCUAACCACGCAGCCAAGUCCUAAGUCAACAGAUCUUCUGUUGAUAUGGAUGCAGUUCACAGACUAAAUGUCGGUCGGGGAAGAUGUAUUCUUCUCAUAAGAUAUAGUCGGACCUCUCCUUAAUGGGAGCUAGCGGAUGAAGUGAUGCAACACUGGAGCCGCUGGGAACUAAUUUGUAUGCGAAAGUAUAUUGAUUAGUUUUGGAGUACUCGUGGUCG; settings: 37 °C
Each item that follows carries a reported self-splicing fitness (ln).

Macromolecule sequence: AUGUAGCAAUAUUACGAUUG
self-splicing fitness (ln): -3.05
//
Macromolecule sequence: CCCUAGCAAUAUUACGUCAC
self-splicing fitness (ln): -1.44
//
Macromolecule sequence: CUCGAGCAAUAUUACGGAUC
self-splicing fitness (ln): 0.135
//
Macromolecule sequence: AGACAGCAAUAUUACGUUCU
self-splicing fitness (ln): -3.16
//
Macromolecule sequence: CAAUAGCAAUAUUACGUGAA
self-splicing fitness (ln): -1.7
//
Macromolecule sequence: CCUCAGCAAUAUUACGGAUA
self-splicing fitness (ln): -2.41
//
Macromolecule sequence: UUCUAGCAAUAUUACGCCGG
self-splicing fitness (ln): -2.05
//
Macromolecule sequence: CGGCAGCAAUAUUACGCAGU
self-splicing fitness (ln): -2.07
//
Macromolecule sequence: UGUAAGCAAUAUUACGUAAG
self-splicing fitness (ln): -1.84
//
Macromolecule sequence: GCCAAGCAAUAUUACGCCGU
self-splicing fitness (ln): -1.45
//
Macromolecule sequence: CUUAAGCAAUAUUACGCCAG
self-splicing fitness (ln): -2.06
//
Macromolecule sequence: UAACAGCAAUAUUACGAGGU
self-splicing fitness (ln): -2.58
//
Macromolecule sequence: CGCAAGCAAUAUUACGGCGU
self-splicing fitness (ln): -2.2
//
Macromolecule sequence: ACAGAGCAAUAUUACGUAAU
self-splicing fitness (ln): -2.5
//
Macromolecule sequence: AACCAGCAAUAUUACGAGGA
self-splicing fitness (ln): -1.51
//
Macromolecule sequence: UUUAAGCAAUAUUACGUACG
self-splicing fitness (ln): 0.322
//
Macromolecule sequence: CACGAGCAAUAUUACGAAUA
self-splicing fitness (ln): -2.23
//
Macromolecule sequence: CGCUAGCAAUAUUACGUUAU
self-splicing fitness (ln): -3.36
//
Macromolecule sequence: AAAUAGCAAUAUUACGCGAA
self-splicing fitness (ln): -1.59
//
Macromolecule sequence: GAAUAGCAAUAUUACGACCG
self-splicing fitness (ln): -0.447
//
Macromolecule sequence: GCAUAGCAAUAUUACGUCCC
self-splicing fitness (ln): 0.182
//
Macromolecule sequence: UAUGAGCAAUAUUACGGGCU
self-splicing fitness (ln): -1.8
//
Macromolecule sequence: CCAAAGCAAUAUUACGCAGU
self-splicing fitness (ln): -1.64
//
Macromolecule sequence: UGCCAGCAAUAUUACGACUG
self-splicing fitness (ln): -2.14
//
Macromolecule sequence: CCUUAGCAAUAUUACGUUCU
self-splicing fitness (ln): -1.5
